System: LNCaP
protocol.summary: Cell growth inhibition assay, prostate cancer cell line LNCaP (medium with 10 ng/mL IL-6)
Format: cell-based
experimental.setup: Homo sapiens, medium supplemented with 10 ng/mL of IL-6, 10,000 cells/well
assay.metric: IC50

> print(dat)
                                   molecule  assay.metric  assay.result
1  CC(C)(c1ccc(F)cc1)c1cc(NC(=O)c2cc3ccc(NS(C)(=O)=O)cc3[nH]2)cc(OC(F)F)c1 [Example 17]          IC50       0.92 µM

For each of the molecules below, note its IC50.
1. COC(=O)c1ccc(C(F)(F)F)c(-c2cccc(NC(=O)c3cc4ccc(NS(C)(=O)=O)cc4[nH]3)c2)c1 [Example 287]
2. CCC(CC)(c1ccc(F)cc1)c1cc(Br)cc(NC(=O)c2cc3cc(NS(C)(=O)=O)ccc3s2)c1 [Example 53]
3. CC(C)Oc1cc(OC(F)(F)F)cc(C(C)(C)c2cc(Cl)cc(NC(=O)c3cc4cc(NS(C)(=O)=O)cnc4s3)c2)c1 [Example 69]

Result ::
["> 10 µM", "0.07 µM", "0.058 µM"]

meta.source: patent US10562912B2
